# STUDY_TARGET: T1, baboon EL (baboon)
# T1 construct: Heparin extract
# ASSAY_PROTOCOL: Biacore; EL captured by anti-C2-tag Ab; bivalent fit
A collection of binders and their measured Kd
ASSAY_ENDPOINT: Kd (nM)

| BINDER | ENDPOINT_RESULT |
| --- | --- |
| 16B3 (antibody, mouse IgG2a, V domains shown, mouse IgG2a from hybridoma; also called 16B3 (mouse mAb)) VH: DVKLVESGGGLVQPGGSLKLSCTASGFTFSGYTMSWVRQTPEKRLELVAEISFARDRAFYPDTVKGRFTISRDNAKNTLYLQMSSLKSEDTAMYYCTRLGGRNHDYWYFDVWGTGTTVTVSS VL: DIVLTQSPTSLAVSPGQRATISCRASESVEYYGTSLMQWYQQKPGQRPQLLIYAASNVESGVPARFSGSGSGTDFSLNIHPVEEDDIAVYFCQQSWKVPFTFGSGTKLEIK | 3.2 |
| 16E7 (antibody, mouse IgG1, V domains shown, mouse IgG1 from hybridoma) VH: EVKLVESGGGLVQPGGSLKLSCAASGFTFSSYTMSWVRQTPEKRLELVAEISFTRSRAFYPDTVKGRFTISRDNAKNTLYLQMSSLKSEDTAMYYCARLGGNNYDYWYFDVWGTGTTVTVSS VL: DIVLTQSPTSLAVSLGQRATISCRASESVEYYGTSLMQWYQQKPGQRPKLLIYAASNVESGVPARFSGSGSGTDFSLNIHPVEEDDIAMYFCQQSWKVPFTFGSGTKLEIK | 4.7 |
| 7D4 (antibody, mouse IgG1, V domains shown, mouse IgG1 from hybridoma) VH: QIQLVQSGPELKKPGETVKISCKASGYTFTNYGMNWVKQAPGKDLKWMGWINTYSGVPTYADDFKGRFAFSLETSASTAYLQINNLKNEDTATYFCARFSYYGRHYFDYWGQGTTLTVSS VL: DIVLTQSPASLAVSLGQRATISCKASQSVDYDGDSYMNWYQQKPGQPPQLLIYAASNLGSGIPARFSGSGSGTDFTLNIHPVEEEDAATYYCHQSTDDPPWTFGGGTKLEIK | 4.5 |
